System: PC9
Experiment: cell count fold change with erlotinib, miRNA mimic vs non-targeting control (log2 ratio); higher = more drug-tolerant survivors than NTC
Details: erlotinib 1 µM; 72 h drug + 72 h drug-free recovery; perturbation: miRNA mimic
readoutKind: cell count fold change with erlotinib
In your answer, state the number alone without any accompanying words.

Query (sequence): ACUGCAUUAUGAGCACUUAAAG ; field requested: cell count fold change with erlotinib
-0.728

Query (sequence): GUGAGGACUCGGGAGGUGG ; field requested: cell count fold change with erlotinib
-3.05

Query (sequence): UCCUGUACUGAGCUGCCCCGAG ; field requested: cell count fold change with erlotinib
-0.848

Query (sequence): AAAGCGCUUCCCUUCAGAGUG ; field requested: cell count fold change with erlotinib
-1.78

Query (sequence): ACAAAGUGCUUCCCUUUAGAGUGU ; field requested: cell count fold change with erlotinib
-0.659

Query (sequence): CUGGAGAUAUGGAAGAGCUGUGU ; field requested: cell count fold change with erlotinib
-0.316

Query (sequence): UGUCUUGCAGGCCGUCAUGCA ; field requested: cell count fold change with erlotinib
-4.12

Query (sequence): UGGAUUUCUUUGUGAAUCACCA ; field requested: cell count fold change with erlotinib
-4.07

Query (sequence): CAAGCUCGUGUCUGUGGGUCCG ; field requested: cell count fold change with erlotinib
-1.13

Query (sequence): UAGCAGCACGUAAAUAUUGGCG ; field requested: cell count fold change with erlotinib
-2.26

Query (sequence): CUCUCACCACUGCCCUCCCACAG ; field requested: cell count fold change with erlotinib
-1.11

Query (sequence): AAAGUGCAUCCUUUUAGAGGUU ; field requested: cell count fold change with erlotinib
-0.881

Query (sequence): GUGAAUUACCGAAGGGCCAUAA ; field requested: cell count fold change with erlotinib
-2.07

Data origin, for the record: the supplement of paper PMC4976141
